Entries and their measured growth follow.
Tested on: MDA-MB-468 breast
Experiment: NCI-60 one-dose screen, 48 h (100 = growth as untreated, 0 = no growth, -100 = all killed)
Details: 10 µM unless noted
This is part of a sample that, as a whole, favours compounds with a hit. Of some 83,000 tested, about 20% had one in any assay.
Field: numeric (%). Do not append units.

>  <compound>
O=C(N/N=C/[C@@H](O)[C@H](O)[C@H](O)CO)c1ccc(NC(=O)c2cccnc2)cc1

>  <growth [%]>
101

$$$$

Query growth on MDA-MB-468 breast for CCOC(=O)C1=C(C)N=c2s/c(=C\c3cc(Cl)ccc3O)c(=O)n2C1c1ccc(OC)cc1 (stereo not given)
94.8

Now try NCCOc1ncccc1/C=C1\c2ccccc2-c2ccc(C(F)F)cc21 .
85.5

Now try C#CCN1C(=O)/C(=c2\sc3n(c2=O)C2C(NN=3)N(CC)C(=O)N2CC)c2ccccc21 (stereo not given) .
-26.9

Now try O=C(CC(c1ccccc1)N1CCOCC1)c1ccccc1 (stereo not given) .
73.4

Now try O=C(Nc1ccccc1C(F)(F)F)C1=NCCCCN1 .
94.8

Now try CCOC(=O)c1sc2ncc(-c3ccc(C)cc3)n2c1C .
102

Now try O=C(Nc1cccc(-c2nc3ccccc3[nH]2)c1)c1cccc(NC(=O)c2ccco2)c1 .
70.8

Now try CC(C)(C)c1ccc(OCCCCCCCN2CCNCC2)cc1 .
-54

Now try COc1ncc(-c2ccc3nccc(-c4ccnnc4)c3c2)cc1NS(=O)(=O)c1ccc(F)cc1F .
-73
